# studySystem: Aβ42 aggregation (Homo sapiens, UniProt P05067)
# Construct: expressed in transfected cells; host or cells: E. coli BL21 (DE3) bearing pET28a-Aβ42
# Sequence (P05067 672-713): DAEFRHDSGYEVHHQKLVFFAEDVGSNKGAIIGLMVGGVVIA
# assayDetails: Aβ42 aggregation inhibition in genetically modified E. coli cells (Th-S fluorescence)
# Assay type: cell-based, Escherichia coli
# reportedConditions: live E. coli cells overexpressing Aβ42, read-out: Aβ42 Aggregation % inh. @10 µM
Please go through the items and note down their inhibition at 10 µM.
// units = %; emit number, no label

What inhibition at 10 µM value was documented for this compound, CC(=O)c1cccc(C(=O)NCCCCCCCCCNc2c3c(nc4cc(Cl)ccc24)CC2C=C(C)CC3C2)c1 (centres unmarked) [Compound 7] ?
73

Given the compound CC1=CC2Cc3nc4cc(Cl)ccc4c(NCCCCCCCCCNC(=O)c4cccc(C(=O)c5ccccc5)c4)c3C(C1)C2 (centres unmarked) [Compound 6] , what is its reported inhibition at 10 µM?
72.6

Would you mind telling me what inhibition at 10 µM value was observed for CC1=CC2Cc3nc4cc(Cl)ccc4c(NCCCCCCCCCNC(=O)c4ccc5c(c4)C(=O)c4ccccc4-5)c3C(C1)C2 (centres unmarked) [Compound 5] ?
69.8

Would you mind telling me what inhibition at 10 µM value was observed for CC1=CC2Cc3nc4cc(Cl)ccc4c(NCCCCCCCCCNC(=O)c4ccc5c(c4)C(=O)c4ccccc4C5=O)c3C(C1)C2 (centres unmarked) [Compound 4] ?
73.3

Endpoint output: inhibition at 10 µM of CC1=CC2Cc3nc4cc(Cl)ccc4c(NCCCCCCCCCNC(=O)c4cc(O)c5c(c4)C(=O)c4cccc(O)c4C5=O)c3C(C1)C2 (centres unmarked) [Compound 3] . Value?
74.2

----------
# assayDetails: physchem
# reportedConditions: 37 °C, aqueous buffer, kinetic from dmso stock, Solubility
experimentalReadout: solubility at 2 h (µM)
Reply with just the number (in µM).

Tell me the measured solubility at 2 h of CC(=O)[C@H]1CC[C@H]2[C@@H]3CCC4=CC(=O)CC[C@]4(C)[C@H]3CC[C@]12C [Progesterone, reference compound] , please.
5.9

----------
Hi there, I'd appreciate the recorded IC50 for every entry that follows.
# studySystem: human serum BChE (hBChE) (Homo sapiens)
# Construct: human serum BChE (hBChE)
# Sequence (P06276 29-602): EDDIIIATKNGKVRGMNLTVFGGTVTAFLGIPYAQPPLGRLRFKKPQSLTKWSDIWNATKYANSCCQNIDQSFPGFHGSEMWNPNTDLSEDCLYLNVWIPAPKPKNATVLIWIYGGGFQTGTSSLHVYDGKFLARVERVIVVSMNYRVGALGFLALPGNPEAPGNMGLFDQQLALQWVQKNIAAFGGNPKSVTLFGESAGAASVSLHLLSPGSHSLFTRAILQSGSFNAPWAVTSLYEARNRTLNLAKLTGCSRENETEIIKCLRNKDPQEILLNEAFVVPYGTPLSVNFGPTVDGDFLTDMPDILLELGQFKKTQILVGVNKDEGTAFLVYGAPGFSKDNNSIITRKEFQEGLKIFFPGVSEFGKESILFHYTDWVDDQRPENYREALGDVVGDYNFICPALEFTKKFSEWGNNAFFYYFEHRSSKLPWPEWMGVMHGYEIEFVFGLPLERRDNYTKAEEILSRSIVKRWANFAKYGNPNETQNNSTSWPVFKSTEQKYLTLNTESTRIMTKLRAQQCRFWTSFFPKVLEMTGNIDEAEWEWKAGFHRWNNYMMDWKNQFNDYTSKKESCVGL
# assayDetails: biochemical
# reportedConditions: human serum BChE; Ellman method; mean ± standard error
Write the value in nM as a bare number.

Request: IC50, test system human serum BChE (hBChE) (Homo sapiens), entry CC1=CC2Cc3nc4cc(Cl)ccc4c(NCCCCCCCCCNC(=O)c4ccc5c(c4)C(=O)c4ccccc4-5)c3C(C1)C2 (stereo not drawn)
883

// map CC1=CC2Cc3nc4cc(Cl)ccc4c(NCCCCCCCCCNC(=O)c4cccc(C(=O)c5ccccc5)c4)c3C(C1)C2 (stereo not drawn) to recorded IC50 (system: human serum BChE (hBChE) (Homo sapiens))
16.5

IC50 of CC1=CC2Cc3nc4cc(Cl)ccc4c(NCCCCCCCCCNC(=O)c4ccc5c(c4)C(=O)c4ccccc4C5=O)c3C(C1)C2 (stereo not drawn) on human serum BChE (hBChE) (Homo sapiens)?
1250

----------
# assayDetails: Plasma stability, rat plasma
# Type: in vitro ADME
# reportedConditions: rat, plasma, 37 °C, 1 h, read-out: Plasma Stability % Remaining Compound, rat, 1 h
Assign remaining at 1 h, 5 μM to each entry below.
Numbers only; they are read as %.

I am curious: what remaining at 1 h, 5 μM value has been reported for CC1=CC2Cc3nc4cc(Cl)ccc4c(NCCCCCCCCCNC(=O)c4cccc(C(=O)c5ccccc5)c4)c3C(C1)C2 (centres unmarked) ?
96

Quick one: remaining at 1 h, 5 μM of CC1=CC2Cc3nc4cc(Cl)ccc4c(NCCCCCCCCCNC(=O)c4ccc5c(c4)C(=O)c4ccccc4C5=O)c3C(C1)C2 (centres unmarked) ?
100

# query: remaining at 1 h, 5 μM of entry CC(=O)c1cccc(C(=O)NCCCCCCCCCNc2c3c(nc4cc(Cl)ccc24)CC2C=C(C)CC3C2)c1 (centres unmarked)
98.9

Recorded remaining at 1 h, 5 μM of CC1=CC2Cc3nc4cc(Cl)ccc4c(NCCCCCCCCCNC(=O)c4ccc5c(c4)C(=O)c4ccccc4-5)c3C(C1)C2 (centres unmarked) , please.
93.6

Form field: reported remaining at 1 h, 5 μM of CC1=CC2Cc3nc4cc(Cl)ccc4c(NCCCCCCCCCNC(=O)c4cc(O)c5c(c4)C(=O)c4cccc(O)c4C5=O)c3C(C1)C2 (centres unmarked)
98

----------
Can you tell me solubility at 2 h for the items I'm about to list?
# assayDetails: physchem
# reportedConditions: PBS (99%) with DMSO (1%), 37 °C, aqueous buffer, kinetic from dmso stock, Solubility class, kinetic solubility, classification after ref 70

# query: solubility at 2 h of entry CC1=CC2Cc3nc4cc(Cl)ccc4c(NCCCCCCCCCNC(=O)c4cccc(C(=O)c5ccccc5)c4)c3C(C1)C2 (centres unmarked)
< 10 µg/mL

Please give the measured solubility at 2 h for this molecule: CC1=CC2Cc3nc4cc(Cl)ccc4c(NCCCCCCCCCNC(=O)c4cc(O)c5c(c4)C(=O)c4cccc(O)c4C5=O)c3C(C1)C2 (centres unmarked)
< 10 µg/mL

Given CC(=O)c1cccc(C(=O)NCCCCCCCCCNc2c3c(nc4cc(Cl)ccc24)CC2C=C(C)CC3C2)c1 (centres unmarked) , state its recorded solubility at 2 h.
10 to 100 µg/mL

Consider the molecule CC1=CC2Cc3nc4cc(Cl)ccc4c(NCCCCCCCCCNC(=O)c4ccc5c(c4)C(=O)c4ccccc4C5=O)c3C(C1)C2 (centres unmarked) and give its measured solubility at 2 h.
< 10 µg/mL

Any idea what its solubility at 2 h is? The molecule is CC1=CC2Cc3nc4cc(Cl)ccc4c(NCCCCCCCCCNC(=O)c4ccc5c(c4)C(=O)c4ccccc4-5)c3C(C1)C2 (centres unmarked)
< 10 µg/mL

----------
# assayDetails: Plasma stability, human plasma
# Assay type: in vitro ADME
# reportedConditions: 37 °C, 6 h, 5 μM, read-out: Plasma Stability % Remaining Compound, human, 6 h
experimentalReadout: remaining at 6 h, 5 μM (%)
Report only the number, with the unit % understood.

Any idea what remaining at 6 h, 5 μM was measured for CC1=CC2Cc3nc4cc(Cl)ccc4c(NCCCCCCCCCNC(=O)c4ccc5c(c4)C(=O)c4ccccc4C5=O)c3C(C1)C2 (stereo not shown) [Compound 4] ?
97.6

Requested field: remaining at 6 h, 5 μM. Item: CC1=CC2Cc3nc4cc(Cl)ccc4c(NCCCCCCCCCNC(=O)c4ccc5c(c4)C(=O)c4ccccc4-5)c3C(C1)C2 (stereo not shown) [Compound 5]
80.4

Given the compound CC1=CC2Cc3nc4cc(Cl)ccc4c(NCCCCCCCCCNC(=O)c4cccc(C(=O)c5ccccc5)c4)c3C(C1)C2 (stereo not shown) [Compound 6] , what is its reported remaining at 6 h, 5 μM?
90.8

Please look up its remaining at 6 h, 5 μM: CC(=O)c1cccc(C(=O)NCCCCCCCCCNc2c3c(nc4cc(Cl)ccc24)CC2C=C(C)CC3C2)c1 (stereo not shown) [Compound 7]
100

----------
# assayDetails: Plasma stability, mouse plasma
# Assay type: in vitro ADME
# reportedConditions: 37 °C, 1 h, read-out: Plasma Stability % Remaining Compound, mouse, 1 h
experimentalReadout: remaining at 1 h, 5 μM
Note to self: number, then unit, no commentary.

I have this compound here, CC1=CC2Cc3nc4cc(Cl)ccc4c(NCCCCCCCCCNC(=O)c4cc(O)c5c(c4)C(=O)c4cccc(O)c4C5=O)c3C(C1)C2 (centres unmarked) , and I need its recorded remaining at 1 h, 5 μM.
97.2%

Please give the measured remaining at 1 h, 5 μM for this compound: CC1=CC2Cc3nc4cc(Cl)ccc4c(NCCCCCCCCCNC(=O)c4ccc5c(c4)C(=O)c4ccccc4C5=O)c3C(C1)C2 (centres unmarked)
96%

I would be grateful if you could share the reported remaining at 1 h, 5 μM for CC1=CC2Cc3nc4cc(Cl)ccc4c(NCCCCCCCCCNC(=O)c4ccc5c(c4)C(=O)c4ccccc4-5)c3C(C1)C2 (centres unmarked) .
95.7%

Consider the compound shown here: CC1=CC2Cc3nc4cc(Cl)ccc4c(NCCCCCCCCCNC(=O)c4cccc(C(=O)c5ccccc5)c4)c3C(C1)C2 (centres unmarked) What is its recorded remaining at 1 h, 5 μM?
98.3%

Need remaining at 1 h, 5 μM, item CC(=O)c1cccc(C(=O)NCCCCCCCCCNc2c3c(nc4cc(Cl)ccc24)CC2C=C(C)CC3C2)c1 (centres unmarked)
97.5%

----------
For each of the compounds below, state its inhibition at 10 µM.
# studySystem: tau aggregation (Homo sapiens)
# Construct: expressed in transfected cells; host or cells: E. coli BL21 (DE3) bearing pTARA and pRKT42
# Sequence (P10636 other isoform, or with tags, fused parts or gaps): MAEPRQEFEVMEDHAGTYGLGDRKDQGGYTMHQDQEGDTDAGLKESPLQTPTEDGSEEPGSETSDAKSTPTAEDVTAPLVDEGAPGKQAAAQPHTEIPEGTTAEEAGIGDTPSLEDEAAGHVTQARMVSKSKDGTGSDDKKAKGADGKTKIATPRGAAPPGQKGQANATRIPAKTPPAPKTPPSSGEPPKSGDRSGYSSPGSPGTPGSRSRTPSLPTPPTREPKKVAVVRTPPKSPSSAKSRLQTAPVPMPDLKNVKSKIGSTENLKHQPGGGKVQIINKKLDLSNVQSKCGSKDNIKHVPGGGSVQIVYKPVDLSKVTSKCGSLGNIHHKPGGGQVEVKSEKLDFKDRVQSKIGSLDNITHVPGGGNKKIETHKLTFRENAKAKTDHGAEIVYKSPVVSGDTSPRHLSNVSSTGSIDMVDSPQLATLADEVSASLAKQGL
# assayDetails: Tau aggregation inhibition in genetically modified E. coli cells (Th-S fluorescence)
# Assay type: cell-based, Escherichia coli
# reportedConditions: live E. coli cells overexpressing tau, read-out: Tau Aggregation % inh. @10 µM
Form entry: value (%) — number only.

Item under review: CC1=CC2Cc3nc4cc(Cl)ccc4c(NCCCCCCCCCNC(=O)c4cccc(C(=O)c5ccccc5)c4)c3C(C1)C2 (centres unmarked) [Compound 6] . Reported inhibition at 10 µM?
62.5

Dear colleague, I am looking for the recorded inhibition at 10 µM of the following compound: CC(=O)c1cccc(C(=O)NCCCCCCCCCNc2c3c(nc4cc(Cl)ccc24)CC2C=C(C)CC3C2)c1 (centres unmarked) [Compound 7]
68

Any idea what its inhibition at 10 µM is? The compound is CC1=CC2Cc3nc4cc(Cl)ccc4c(NCCCCCCCCCNC(=O)c4ccc5c(c4)C(=O)c4ccccc4C5=O)c3C(C1)C2 (centres unmarked) [Compound 4]
63

Requested field: inhibition at 10 µM. Item: CC1=CC2Cc3nc4cc(Cl)ccc4c(NCCCCCCCCCNC(=O)c4ccc5c(c4)C(=O)c4ccccc4-5)c3C(C1)C2 (centres unmarked) [Compound 5]
68.9

Bench note: what inhibition at 10 µM did CC1=CC2Cc3nc4cc(Cl)ccc4c(NCCCCCCCCCNC(=O)c4cc(O)c5c(c4)C(=O)c4cccc(O)c4C5=O)c3C(C1)C2 (centres unmarked) [Compound 3] show?
58.2
